Measured Target: T1, recombinant human CD63 extracellular loop 2 expressed with a C-terminal human Fc tag (human)
T1 construct: also called hCD63 EC loop 2-hFc; human CD63 EC loop 2-Fc
T1 sequence (chain, as listed by the source limits assumed): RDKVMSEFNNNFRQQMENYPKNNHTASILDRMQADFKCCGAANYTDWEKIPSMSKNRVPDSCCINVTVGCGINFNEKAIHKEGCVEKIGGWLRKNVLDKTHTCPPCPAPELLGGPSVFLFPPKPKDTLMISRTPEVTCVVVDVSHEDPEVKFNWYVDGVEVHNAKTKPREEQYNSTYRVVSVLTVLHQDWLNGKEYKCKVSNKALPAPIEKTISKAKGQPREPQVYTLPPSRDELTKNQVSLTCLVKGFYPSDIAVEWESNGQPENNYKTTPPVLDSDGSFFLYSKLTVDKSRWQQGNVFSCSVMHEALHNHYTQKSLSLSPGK
Test Name: SPR Biacore, mAb captured, 25C
Experimental: Equilibrium dissociation constants (KD) for different CD63 (EC2) loop reagents binding to purified anti-CD63 monoclonal antibodies were determined using a real-time surface plasmon resonance based Biacore T200 biosensor or Biacore 2000 biosensor. […] The association rate (Kₐ) and dissociation rate (kd) were determined by fitting the real-time binding sensorgrams to a 1:1 binding model with mass transport limitation using Scrubber 2.0c curve-fitting software. […]
Listed next: entries and their corresponding koff.

H2M12395N (antibody, V domains shown, also called H2aM12395N) VH: QVQLQESGPRLVKPSETLSLTCIVSGGSISNFYWNWIRQSPGKGLEWIGYFFYTGTIDYNPSLKSRVTISLDTSKNQFSLNLRLLTAADAAVYYCARMGLGANAFDIWGHGTMVTVSS VL: EIVLTQSPGTLSLSPGERATLSCRASQHVSSNYLAWYQQKPGQAPRLLIYGGSSRATGIPDRFSGSGSGTDFTLTISRLEPADFAVFYCQQYGNSPWTFGQGTKVEMK    0.00051 s⁻¹
H2M12385N (antibody, V domains shown, also called H2bM12385N; H2bM12385) VH: QVQLVESGGGLVKPGGSLRLSCAASGFTFTDYFMNWIRQAPGKGLEWVSYISNSGAIKYQADSVKGRFTISRDNAKNSLYLQMNSLRADDTAVYYCVRDPRSYYGFDYWGQGTLVTVSS VL: DIQMTQSPSSLSASVGDRVTITCRASQSIRNFLNWYQQKPGKAPRLLIYAASSLQSGVPSRFSGGGSGTDFTLTISSLQPEDFATYYCQQSYSNPPITFGQGTRLEIK    0.000984 s⁻¹

Exercise: Given H2M13022N (antibody, V domains shown, also called H2bM13022N) VH: QVQLVESGGGLVQPGGSLRLSCAASGFIFGDYYINWIRQAPGKGLQWVSYTSSSGSTTYYEDSVKGRFTMSRDNAKNLVYLQMNSLRAEDTAAYYCVRDLRYNDGLDVWGQGTTVIVSS VL: DILLTQSPSSLSAFVGDRVTITCRASQNIRTYLNWYQQKPGRAPKLLVYAASTLQSGVPSRFSGSGSGTDFTLTISSLQPEDFASYFCQQSYDNPPITFGQGTRLAIK , state its recorded koff.
Key: 0.00028 s⁻¹
